Counter-ions that a name gives are not always drawn.
Reported melting point by item:

# compound, melting point
data = [
    ("CNc1ccc(-c2ccc(C(=O)Nc3ccc4c(c3)CCC(CN(C)C)C4)cc2)cc1 (stereo not drawn)", "163 to 165 °C"),
    ("CC1=C(CN(C)C)CCc2cc(NC(=O)c3ccc(-c4ccc(Cl)cc4)cc3)ccc21", "199 to 204 °C"),
    ("COc1ccc(-c2ccc(C(=O)Nc3ccc(CC(=O)NCCN(C)C)cc3)cc2)cc1", "196 to 198 °C (dec.)"),
    ("CN(C)CC1=Cc2ccc(NC(=O)c3ccc(-c4ccccc4Cl)cc3)cc2CC1", "145 to 147 °C"),
    ("CC(C)CC1=C(CN(C)C)CCc2cc(NC(=O)c3ccc(-c4ccc(Cl)cc4)cc3)ccc21", "159 to 162 °C"),
    ("Cl.O=C(Nc1ccc(CC2CCCNC2)cc1)c1ccc(-c2ccc(Cl)cc2)cc1 (stereo not drawn)", "200 °C (dec.)"),
    ("CN(C)CCC1CCc2cc(NC(=O)c3ccc(-c4ccccc4)cc3)ccc2C1 (stereo not drawn)", "112 to 114 °C"),
    ("CN(C)CC1COc2cc(NC(=O)c3ccc(-c4ccc(Cl)cc4)cc3)ccc2O1 (stereo not drawn)", "215 to 217 °C"),
    ("CN(C)CC1=Cc2ccc(NC(=O)c3ccc(-c4ccc(F)cc4)cc3)cc2C1", "209 to 211 °C"),
    ("COc1ccc(-c2ccc(C(=O)Nc3ccc4c(c3)OCC(CN3CCCC3)=C4)cn2)cc1", "243 to 245 °C"),
    ("CN(C(=O)c1ccc(-c2ccc(F)cc2)cc1)c1ccc2c(c1)CCC(CN1CCCC1)=C2 (as salt: hydrochloride)", "201 to 203 °C"),
    ("O=C(Nc1ccc2c(c1)OCC(CN1CCCC1)O2)c1ccc(-c2ccc(Cl)cc2)nc1 (stereo not drawn)", "218 to 220 °C"),
    ("CN(C)CCNC(=O)Cc1ccc(NC(=O)c2cc3ccccc3s2)cc1", "186 to 187 °C (dec.)"),
    ("CN(C)CCNC(=O)Cc1ccc(NC(=O)c2ccc(C(=O)c3ccccc3)cc2)cc1", "173 to 175 °C (dec.)"),
    ("O=C(Nc1ccc2c(c1)CCC(CN1CCCCC1)C2)c1ccc(-c2ccc(F)cc2)cc1 (stereo not drawn)", "179 to 181 °C"),
    ("O=C(Nc1ccc2c(c1)CCC(CN1CCCC1)=C2)c1ccc(-c2ccc(F)cc2)nc1", "225 to 227 °C"),
    ("CN(C)CC1CCc2cc(NC(=O)c3ccc(Oc4ccccc4)cc3)ccc2C1 (stereo not drawn)", "137 to 139 °C"),
    ("CN(C)CC1CCCc2cc(NC(=O)c3ccc(-c4ccc(Cl)cc4)cc3)ccc2C1 (stereo not drawn)", "173 to 175 °C"),
]
